Target: T1, human CD63 (human, UniProt P08962 2-238)
T1 construct: stably transfected in NIH3T3/hCD63; The cell line is named under assay; also called hCD63
T1 sequence: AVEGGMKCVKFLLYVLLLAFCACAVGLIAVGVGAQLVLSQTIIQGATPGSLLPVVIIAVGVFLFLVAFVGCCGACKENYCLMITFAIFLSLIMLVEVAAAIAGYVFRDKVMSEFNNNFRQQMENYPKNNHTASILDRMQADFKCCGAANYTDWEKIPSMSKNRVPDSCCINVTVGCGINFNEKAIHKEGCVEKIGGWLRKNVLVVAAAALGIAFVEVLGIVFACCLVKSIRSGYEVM
Experiment: ECL, NIH3T3/hCD63 cells
binders and their reported EC50
Answer format: numeric, nM implied, no suffix.

H2M12395N (antibody, V domains shown, also called H2aM12395N) VH: QVQLQESGPRLVKPSETLSLTCIVSGGSISNFYWNWIRQSPGKGLEWIGYFFYTGTIDYNPSLKSRVTISLDTSKNQFSLNLRLLTAADAAVYYCARMGLGANAFDIWGHGTMVTVSS VL: EIVLTQSPGTLSLSPGERATLSCRASQHVSSNYLAWYQQKPGQAPRLLIYGGSSRATGIPDRFSGSGSGTDFTLTISRLEPADFAVFYCQQYGNSPWTFGQGTKVEMK | 0.57
H2M12387N (antibody, V domains shown, also called H2aM12387N) VH: QVQLEESGGGVVKAGGSLRLSCAASGFTFSDYYMNWIRQAPGKGLEWVSYINNGGYTIYYADSVKGRFTMSRDNAKNSVYLQMNGLRAEDTAFYYCVRDPRSYYGFDYWGQGTLVIVSS VL: DIQMTQSPSSLSASVGDRVTITCRASQSISRFLHWYQQKPGKAPKLLIYGASSLQSGVPSRFSGSGSGTDFTLTISSLQPEDFATYYCQQSYSTPPITFGQGTRLEIK | 0.39
H1M12388N (antibody, V domains shown) VH: QVQLEESGGGVVKAGGSLRLSCAASGFTFSDYYINWIRQAPGKGLEWVSYINNGGYTIYYADSVKGRFTMSRDNAKNSVYLQMNGLRAEDTAFYYCVRDPRSYYGFDYWGQGTLVTVSS VL: DIQMTQSPSSLSASVGDRVTITCRASQSISRFLHWYQQKPGKAPKLLIYGASSLQSGVPSRFSGSGSGTDFTLTISTLQPEDFATYYCQQSYSTPPITFGQGTRLEIK | 0.52
H1M12386N (antibody, V domains shown) VH: QVQLEESGGGVVKAGGSLRLSCVASGFTFSDYYINWIRQAPGKGLEWVSYINNGGYTIYYADSVKGRFTMSRDNAKNSVYLEMNGLRAEDTAFYYCVRDPRSYYGFDYWGQGTLVTVSS VL: DIQMTQSPSSLSASVGDRVTITCRASQSISSYLNWNQQKPGKAPKLLIYVASSLQSGVPSRFSGSGSGTDFTLTISGLQPEDFAPYYCQQSYITPPITFGQGTRLDIK | 0.52

Fill in: EC50 of H2M12452N (antibody, V domains shown, also called H2aM12452N) VH: QVQLQEAGPGLVKPSETLSLTCIVSGGSISGFYWNWIRQPPGKGLEWIGYFLYSGTIDYNPSLKSRVTISVDTSKNQFFLKLSFVTAADTAVYYCVRMGLGANAFDIWGRGTMVTVSS VL: EIVLTQSPGTLSLSPGERATLSCRASQTVSRSFLAWYQQKPGQAPRLLIYGPSSRATGIPDRFSGSGSGTDFTLTISRLEPEDFAVYYCQQYGNSPWTFGQGTKVEIK is ___
0.61

Fill in: EC50 of H1M12451N (antibody, V domains shown) VH: QVQLQESGPGLMKPSETLSLTCTVSGGSFSSYYWNWIRQSPGKGLEWIGYIRYSGDTNYKPSLKSRFTISIDTSKNLFSLRLKSVTAADTAVYYCARMGLGSDAFDIWGQGTMVTVSS VL: EIVLTQSPGTLSLSPGERATLSCRASQSVNNNYLAWYQQKPGQAPRLLIYGVFNRATNIPDRFSGSGSGTDFTLTISRLEPEDFAVYYCQQYGSSPWTFGQGTKVEIK is ___
0.29

Fill in: EC50 of H2M12385N (antibody, V domains shown, also called H2bM12385N; H2bM12385) VH: QVQLVESGGGLVKPGGSLRLSCAASGFTFTDYFMNWIRQAPGKGLEWVSYISNSGAIKYQADSVKGRFTISRDNAKNSLYLQMNSLRADDTAVYYCVRDPRSYYGFDYWGQGTLVTVSS VL: DIQMTQSPSSLSASVGDRVTITCRASQSIRNFLNWYQQKPGKAPRLLIYAASSLQSGVPSRFSGGGSGTDFTLTISSLQPEDFATYYCQQSYSNPPITFGQGTRLEIK is ___
0.45

Reference for the values: patent US20210079109A1
